// data source = the supplement of paper PMC8728848

testSystem: Gal(a1-2)Gal
assayNotes: glycan array binding signal (z-score within array); higher = stronger binding
appliedConditions: glycan notation: IUPAC condensed, linker removed
Only a selection was taken, and the strongest signals are over-represented in it overall.
assayEndpoint: glycan array binding signal (z-score)
Numbers only.

- Langerin K313I (Homo sapiens), Q9UJ71 (protein) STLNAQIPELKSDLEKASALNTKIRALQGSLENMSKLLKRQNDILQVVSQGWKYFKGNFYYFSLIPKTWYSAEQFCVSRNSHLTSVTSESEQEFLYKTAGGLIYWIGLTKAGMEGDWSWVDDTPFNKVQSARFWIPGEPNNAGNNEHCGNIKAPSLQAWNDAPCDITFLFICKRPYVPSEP: -0.155

Query string: I would be grateful if you could share the reported glycan array binding signal (z-score) for FBG2 (Homo sapiens), Q9NRD1 (protein) MDAPHSKAALDSINELPENILLELFTHVPARQLLLNCRLVCSLWRDLIDLMTLWKRKCLREGFITKDWDQPVADWKIFYFLRSLHRNLLRNPCAEEDMFAWQIDFNGGDRWKVESLPGAHGTDFPDPKVKKYFVTSYEMCLKSQLVDLVAEGYWEELLDTFRPDIVVKDWFAARADCGCTYQLKVQLASADYFVLASFEPPPVTIQQWNNATWTEVSYTFSDYPRGVRYILFQHGGRDTQYWAGWYGPRVTNSSIVVSPKMTRNQASSEAQPGQKHGQEEAAQSPYRAVVQIFPPPVTIQQWNNATWTEVSYTFSDYPRGVRYILFQHGGRDTQYWAGWYGPRVTNSSIVVSPKMTRNQASSEAQPGQKHGQEEAAQSPYRAVVQI .
Result string: -0.526
